Every entry's value here was drawn from patent US4879295A.

# Tested on: passive cutaneous anaphylaxis (PCA)
# Assay Overview: Anti-passive cutaneous anaphylaxis (PCA) activity in rats, 48-hours PCA (TEST EXAMPLE 1)
# Format: in vivo, rat (Wistar strain male)
# Measurement Setup: Rattus norvegicus, iv, I.V. (caudal vein), 2 mg/kg, 5 minutes before elicitation
This section presents compounds with their documented inhibition in vivo at 2 mg/kg values.
Use % as the unit, but write only the number.

COc1ccc(O)c(-c2nc(C(=O)Nc3nnn[nH]3)cs2)c1	93

Which inhibition in vivo at 2 mg/kg value is on record for COc1ccccc1-c1nc(C(=O)Nc2nnn[nH]2)cs1 ?
99

Which inhibition in vivo at 2 mg/kg value is on record for Cc1ccc(O)c(-c2nc(C(=O)Nc3nnn[nH]3)cs2)c1 ?
81

Which inhibition in vivo at 2 mg/kg value is on record for O=C(Nc1nnn[nH]1)c1csc(-c2cc([N+](=O)[O-])ccc2O)n1 ?
98

Which inhibition in vivo at 2 mg/kg value is on record for O=C(Nc1nnn[nH]1)c1csc(-c2cc(Cl)ccc2O)n1 ?
97

Which inhibition in vivo at 2 mg/kg value is on record for O=C(Nc1nnn[nH]1)c1csc(-c2ccccc2OCc2ccccc2)n1 ?
98

Which inhibition in vivo at 2 mg/kg value is on record for O=C(Nc1nnn[nH]1)c1csc(-c2cccc(C(F)(F)F)c2)n1 ?
98

Which inhibition in vivo at 2 mg/kg value is on record for O=C(Nc1nnn[nH]1)c1csc(-c2ccccc2O)n1 ?
99

Which inhibition in vivo at 2 mg/kg value is on record for COc1ccc(-c2nc(C(=O)Nc3nnn[nH]3)cs2)cc1 ?
98

Which inhibition in vivo at 2 mg/kg value is on record for COc1cccc(-c2nc(C(=O)Nc3nnn[nH]3)cs2)c1 ?
99
